Target: glucosylceramide synthase (Homo sapiens)
Construct: Microsomes were isolated from A375 human melanoma cells; endogenous in cells
Sequence (Q16739 1-394): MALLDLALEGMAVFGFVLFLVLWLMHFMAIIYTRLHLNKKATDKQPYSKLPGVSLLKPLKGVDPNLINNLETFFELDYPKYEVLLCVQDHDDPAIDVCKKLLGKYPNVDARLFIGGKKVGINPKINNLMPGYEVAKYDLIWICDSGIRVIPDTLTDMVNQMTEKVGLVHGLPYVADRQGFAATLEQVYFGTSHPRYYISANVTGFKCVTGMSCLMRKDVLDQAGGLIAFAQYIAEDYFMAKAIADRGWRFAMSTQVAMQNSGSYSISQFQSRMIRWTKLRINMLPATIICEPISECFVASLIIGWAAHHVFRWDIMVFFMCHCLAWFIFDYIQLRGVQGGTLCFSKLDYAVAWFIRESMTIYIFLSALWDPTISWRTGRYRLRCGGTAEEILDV
Assay: microsomal assay measuring conversion of ceramide to glucosylceramide by HPLC (GCS IC50)
Conditions: concentration causing 50% inhibition of glucosylceramide synthase activity
READOUT: pIC50
Give only the number. pIC50 is defined as minus log10 of concentration in molar units.

1. CC(C)(NC(=O)NC1(C)CN2CCC1CC2)c1ccc(-c2ccc(C(=O)N3CCOCC3)cc2)cc1 (stereo not drawn) [Example 267]
6.44

Give pIC50 only, for CC1(NC(=O)C2CCN(c3nccc(-c4cc(F)cc(F)c4)n3)CC2)CCN2CCC1CC2 (stereo not drawn) [Example 65] , using glucosylceramide synthase (Homo sapiens) data. 8.88

Report measured pIC50 on glucosylceramide synthase (Homo sapiens); entry: COCCCOc1ccc(-c2nc(N3CCC(C(=O)NC4(C)CCN5CCC4CC5)CC3)ncc2F)cc1 (stereo not drawn) [Example 62] 9.03
